- run-description: amyloid nucleation score (Sup35N fusion, yeast selection) (log enrichment); library NNK3; higher = more nucleation; inactive = no reads after selection;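 further: zero at mode of non-aggregating sequences after 7 days selection at 30°C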
measure: amyloid nucleation score

# example entries with known answers
substance | amyloid nucleation score
SVCSCNAKYARIGMMLFLLG | 1.16
FVCSARYNSFRFKATVHNSR | inactive
TVTWFDINCMVGFLY | 0.431
GDGYRQRVLLWMLVSAGPAS | inactive
AIKVGASIINFLWLAHVWCP | inactive

Lab note: measured amyloid nucleation score of NGPVGN was inactive

Lab note: measured amyloid nucleation score of LTKCPCRLLCRLRSRARRMG was -0.328

Lab note: measured amyloid nucleation score of RDMFIYKTCMKVCVQLPYII was inactive

Lab note: measured amyloid nucleation score of YVFGKLSAFFFVRFNLQGLL was inactive

Lab note: measured amyloid nucleation score of DTVRHLISYRGLGRLHRHTM was inactive

Lab note: measured amyloid nucleation score of GRRRIRNCVSRACLMYIQHV was 0.434

Lab note: measured amyloid nucleation score of HLNGVALFNW was 0.917

Lab note: measured amyloid nucleation score of GLRNYRDGVKIASAVSVGAS was inactive

Lab note: measured amyloid nucleation score of FWHENSIAELWICKTLLGKF was inactive

Lab note: measured amyloid nucleation score of FVHKNPHHRFAQMCTKANCR was inactive

Lab note: measured amyloid nucleation score of SVQLGIKNVITLRSYVYKTW was -0.208

* * *

- run-description: amyloid nucleation score (Sup35N fusion, yeast selection) (log enrichment); library NNK3; higher = more nucleation; inactive = no reads after selection
measure: amyloid nucleation score

sequence-string | amyloid nucleation score
VGWNQDGDHMKSLKVAWARW | inactive
NRVSGALKPLVVS | inactive
LIYDRHSWNHWSSQHVDRDG | inactive
AMTRCGECGHRMGKASAGMW | inactive
MGKVARRA | inactive
GVYMLLDVPYGTASTSAMGS | inactive
RVLSCECKVGRKWICTELFV | inactive
HLMFCNHMALCVFFLQQEF | 2.21

Lab note: measured amyloid nucleation score of EADPYIPKSVFGVGFNGHVV was inactive

Lab note: measured amyloid nucleation score of HEYECGWIGVVFTMILMSLS was inactive

Lab note: measured amyloid nucleation score of RRPVRSSNGALTLICRDREF was inactive

Lab note: measured amyloid nucleation score of DLGFWPYFISIMACCWDQKG was 1.15

Lab note: measured amyloid nucleation score of KPWGPGIIGSGSRIMTDVVE was inactive

Lab note: measured amyloid nucleation score of HYEVRGVLFAMPPCGNI was inactive

Lab note: measured amyloid nucleation score of VIICIAGGLPMRTH was 1.71

Lab note: measured amyloid nucleation score of RCVLSNSNLCFKFFRVQTME was inactive

Lab note: measured amyloid nucleation score of PNWEWIVYKMLGTFVHSWVM was inactive

* * *

- run-description: amyloid nucleation score (Sup35N fusion, yeast selection) (log enrichment); library NNK3; higher = more nucleation; inactive = no reads after selection
measure: amyloid nucleation score

# example entries with known answers
substance | reported
SHIDAIAQGNTVSSCGYV | inactive
RTSLNGTLGVLSRYGWNISE | inactive
LWRDSGTITDGFECFSME | inactive
NIAIGLYRFKMLDGKRSCML | inactive
AYNQSRILGVDLACRNELLC | inactive
YDKLSYKLPLF | inactive

Lab note: measured amyloid nucleation score of FWLTNISFDLKFKINSSEFT was 0.205

Lab note: measured amyloid nucleation score of SRLIIVPCCLL was 0.478

Lab note: measured amyloid nucleation score of RPTTIGINNDW was inactive

Lab note: measured amyloid nucleation score of MMRWIDVGYLVDLYSLRISG was inactive

Lab note: measured amyloid nucleation score of FICERMRRIVESNVDLLGFY was -0.359

Lab note: measured amyloid nucleation score of VWVFKTNFVFRVQLGHSLGC was 1.46

Lab note: measured amyloid nucleation score of YRILRL was inactive

Lab note: measured amyloid nucleation score of VSKLWSYLVLYPHWV was inactive

Lab note: measured amyloid nucleation score of GIELAVFYCHYIRVGSDVY was inactive

Lab note: measured amyloid nucleation score of KFCISSKDKIF was inactive

Lab note: measured amyloid nucleation score of SFSMKKGQHQLIS was inactive

Lab note: measured amyloid nucleation score of LSSCLSRI was inactive
